Molecular target: T1, HpFurA92T (Helicobacter pylori, UniProt O25671 1-150, A92T)
T1 sequence: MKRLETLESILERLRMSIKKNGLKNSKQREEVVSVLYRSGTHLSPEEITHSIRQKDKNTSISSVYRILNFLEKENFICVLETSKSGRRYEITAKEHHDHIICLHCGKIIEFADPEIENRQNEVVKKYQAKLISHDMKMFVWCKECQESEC
Assay: fluorescence anisotropy
pKd: −log10 of the molar value.
assay metric: pKd

[[record]]
binder = "amiE Fur box duplex (dsDNA) DNA 1: TGCCCCAATAATCATAATGATTAA DNA 2: TTAATCATTATGATTATTGGGGCA"
assay_metric = "pKd"
observed_measurement = 7.82

